Hey, just so you know, these numbers are from paper PMC4788153.

Experiment: Chiral plasma pharmacokinetics of MDMA and its phase I and II metabolites after controlled MDMA administration
Assay type: in vivo, human
Conditions: both sexes, human, plasma, oral, bupropion+MDMA (125 mg), CYP2D6 EM (EM/Bup), n=13, plasma; read-out: t1/2 R (converted)
Structures can show the parent of a compound that is named as a salt.
PARAMETER: half-life (h)
Use h as the unit, but write only the number.

Illustrative cases are given below, each with its answer.
CN[C@H](C)Cc1ccc2c(c1)OCO2 [R-MDMA, 3,4-methylenedioxymethamphetamine]
10.8
CN[C@H](C)Cc1ccc(O)c(OS(=O)(=O)O)c1 [R-DHMA 3-sulfate]
46.2
CNC(C)Cc1ccc(OC2OC(C(=O)O)C(O)C(O)C2O)c(OC)c1 (centres unmarked) [R-HMMA glucuronide]
31.7
CN[C@H](C)Cc1ccc(OS(=O)(=O)O)c(OC)c1 [R-HMMA sulfate]
34.4

Could you please provide reported half-life for CN[C@H](C)Cc1ccc(OS(=O)(=O)O)c(O)c1 [R-DHMA 4-sulfate] ? Thanks!
49.9

----------
Overview of recorded log10 of Cmax for various compounds
Experiment: Chiral plasma pharmacokinetics of MDMA and its phase I and II metabolites after controlled MDMA administration
Assay type: in vivo, human
Conditions: both sexes, human, plasma, oral, bupropion+MDMA (125 mg), CYP2D6 EM (EM/Bup), n=13, plasma; read-out: Cmax R
Where a name gives a salt, the structure may show the parent alone.
Hi team, quick reminder: these entries are log10 of Cmax (µM).

CN[C@H](C)Cc1ccc2c(c1)OCO2
-0.12
CN[C@H](C)Cc1ccc(OS(=O)(=O)O)c(OC)c1 [R-HMMA sulfate]
-0.85
CN[C@H](C)Cc1ccc(O)c(OS(=O)(=O)O)c1 [R-DHMA 3-sulfate]
-1.30

Quick one: give measured log10 of Cmax for CC(N)Cc1ccc2c(c1)OCO2 (stereo not drawn)
-2.00

Assign log10 of Cmax to the following record: CN[C@H](C)Cc1ccc(OS(=O)(=O)O)c(O)c1 [R-DHMA 4-sulfate]
-1.43

Specify log10 of Cmax for CNC(C)Cc1ccc(OC2OC(C(=O)O)C(O)C(O)C2O)c(OC)c1 (stereo not drawn) [R-HMMA glucuronide] and stop.
-1.31

----------
Assay: Chiral plasma pharmacokinetics of MDMA and its phase I and II metabolites after controlled MDMA administration
Type: in vivo, human
Conditions: bupropion+MDMA (125 mg), CYP2D6 EM (EM/Bup), n=13, plasma
Where a name gives a salt, the structure may show the parent alone.
PARAMETER: AUCtotal R

CNC(C)Cc1ccc(OC2OC(C(=O)O)C(O)C(O)C2O)c(OC)c1 (centres unmarked) [R-HMMA glucuronide]
2.3 (1.5) μmol/l*h-1
CN[C@H](C)Cc1ccc(OS(=O)(=O)O)c(O)c1 [R-DHMA 4-sulfate]
2.9 (2.2) μmol/l*h-1
CN[C@H](C)Cc1ccc(O)c(OS(=O)(=O)O)c1 [R-DHMA 3-sulfate]
3.1 (2.1) μmol/l*h-1
CN[C@H](C)Cc1ccc(OS(=O)(=O)O)c(OC)c1 [R-HMMA sulfate]
7.1 (4.6) μmol/l*h-1

Read the next record carefully.
For the molecule `CN[C@H](C)Cc1ccc2c(c1)OCO2` , give its measured AUCtotal R value.
14.2 (3.7) μmol/l*h-1

----------
Assay: Chiral plasma pharmacokinetics of MDMA and its phase I and II metabolites after controlled MDMA administration
Assay type: in vivo, human
Conditions: human, plasma, im, placebo+MDMA (125 mg), CYP2D6 IM, n=3, plasma; read-out: tmax S
Where a name gives a salt, the structure may show the parent alone.
Could you mark each record yes if its Tmax falls strictly under 2 h, and no if it equals or exceeds it?

CN[C@@H](C)Cc1ccc(OS(=O)(=O)O)c(O)c1 [S-DHMA 4-sulfate]
no
CN[C@@H](C)Cc1ccc(OS(=O)(=O)O)c(OC)c1 [S-HMMA sulfate]
no
CC(N)Cc1ccc2c(c1)OCO2 (stereo not drawn) [S-MDA, 3,4-methylenedioxyamphetamine]
no
CN[C@@H](C)Cc1ccc2c(c1)OCO2 [S-MDMA, 3,4-methylenedioxymethamphetamine]
no
CN[C@@H](C)Cc1ccc(O)c(OS(=O)(=O)O)c1 [S-DHMA 3-sulfate]
yes

Let us examine a further case.
API: query returns whether the compound falls strictly under 2 h in Tmax. Query: CNC(C)Cc1ccc(OC2OC(C(=O)O)C(O)C(O)C2O)c(OC)c1 (stereo not drawn) [S-HMMA glucuronide]
no
